Molecular target: 5-lipoxygenase (5-LOX) enzyme (Homo sapiens, UniProt P09917)
Sequence (P09917 1-674): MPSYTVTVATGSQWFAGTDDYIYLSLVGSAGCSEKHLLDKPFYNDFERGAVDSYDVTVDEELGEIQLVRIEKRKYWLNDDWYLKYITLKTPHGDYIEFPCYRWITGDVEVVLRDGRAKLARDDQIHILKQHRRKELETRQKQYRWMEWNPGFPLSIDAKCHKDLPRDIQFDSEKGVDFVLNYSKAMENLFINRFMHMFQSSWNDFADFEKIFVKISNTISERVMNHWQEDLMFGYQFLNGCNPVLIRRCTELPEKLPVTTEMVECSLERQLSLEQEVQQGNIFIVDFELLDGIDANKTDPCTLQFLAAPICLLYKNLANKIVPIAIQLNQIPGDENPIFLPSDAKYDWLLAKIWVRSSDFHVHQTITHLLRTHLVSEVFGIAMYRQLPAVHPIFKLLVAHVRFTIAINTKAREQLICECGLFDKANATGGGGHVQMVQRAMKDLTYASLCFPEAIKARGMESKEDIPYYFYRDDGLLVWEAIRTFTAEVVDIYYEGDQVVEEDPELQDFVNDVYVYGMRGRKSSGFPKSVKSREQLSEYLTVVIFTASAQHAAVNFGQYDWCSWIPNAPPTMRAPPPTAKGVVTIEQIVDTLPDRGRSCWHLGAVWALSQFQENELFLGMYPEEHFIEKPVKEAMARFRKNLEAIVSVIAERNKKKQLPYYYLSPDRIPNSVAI
parameter.measured: IC50 (µM)
Unit µM implied. Number only.

**Q:** Report IC50, nothing else, for this molecule: CC(C)(O)c1ccccc1CC[C@@H](SCC1(CC(=O)O)CC1)c1cccc(/C=C/c2ccc3ccc(Cl)cc3n2)c1 [Montelukast, reference compound]
**A:** 21.8
